Assay: NCI Yeast Anticancer Drug Screen. Data for the bub3 strain (AID 167)
Conditions: S. cerevisiae bub3 mutant strain, at 50.0 µM, stronger effect = higher value
The panel holds about 79,000 compounds, 15% with a hit somewhere; the sample as a whole holds those more often.
Reported growth inhibition values for the following molecules.
experimental.endpoint: growth inhibition (%)

>  <molecule>
CCCCCC1(C(C)C)C(=O)NC(=O)NC1=O

>  <measured>
-0.6

$$$$
>  <molecule>
CCOP1(=O)C=C(C)C(Cl)=C(C)C1 (stereo not given)

>  <measured>
3.05

$$$$
>  <molecule>
COc1ccc(C(C)CNCc2ccccc2)cc1 (stereo not given)

>  <measured>
-1.7

$$$$
>  <molecule>
Cc1cccnc1NN=O

>  <measured>
-20.2

$$$$
>  <molecule>
Clc1ccc(N2CCN(c3ccc(Cl)cc3)CC2)cc1

>  <measured>
-6.9

$$$$
>  <molecule>
COc1ccc(C=C(C#N)C#N)cc1OC

>  <measured>
-1.3

$$$$
>  <molecule>
OCCC[n+]1cccc2ccccc21

>  <measured>
0.95

$$$$
>  <molecule>
Clc1ccc(N=P(c2ccccc2)(c2ccccc2)c2ccccc2)cc1.[Cl][Cd][Cl]

>  <measured>
64.2

$$$$
>  <molecule>
C=C(C)c1ccccc1 (tested in a mixture with another compound)

>  <measured>
-3.2

$$$$
>  <molecule>
COc1ccc(/C=C/C=C2C(=O)NC(=S)NC2=O)cc1

>  <measured>
0.75

$$$$
>  <molecule>
C=CCOC(=O)Cc1ccccc1

>  <measured>
-39.2

$$$$
>  <molecule>
NC(=O)C[N+](=O)[O-]

>  <measured>
-2.35

$$$$
>  <molecule>
Cn1cc(C(=O)C[n+]2ccccc2)c2ccccc21

>  <measured>
-30.1

$$$$
>  <molecule>
O=C1/C(=C\c2ccc([N+](=O)[O-])cc2)N2CCC1CC2

>  <measured>
1.75

$$$$
>  <molecule>
CN(C)C(=O)CCCc1ccc(N(CCCl)CCCl)cc1

>  <measured>
-0.9

$$$$
>  <molecule>
CCOP(=O)(OCC)Oc1ccncc1

>  <measured>
7.75

$$$$
>  <molecule>
O=C1OC(c2ccccc2)(c2ccccc2)C(=O)OC1(c1ccccc1)c1ccccc1

>  <measured>
10.4

$$$$
>  <molecule>
CN(c1ccccc1)c1nc(=[N+]2CCCC2)ss1

>  <measured>
7.75

$$$$
>  <molecule>
CCOc1ccc(/C=C/c2cc(OC)c(OC)c(OC)c2)cc1

>  <measured>
-8.6

$$$$
>  <molecule>
CC(=O)Nc1cccc([As+](C)(C)C)c1

>  <measured>
-3.35

$$$$
>  <molecule>
COc1ccc2c(C3(O)CCNCC3)c[nH]c2c1

>  <measured>
-3.7

$$$$
>  <molecule>
O=C(O)c1ccccc1/C=N\NC(=S)NC1CN2CCC1CC2 (stereo not given)

>  <measured>
34.6

$$$$
>  <molecule>
CC1(C)CN=C(Nc2ccc(Cl)cc2)S1

>  <measured>
-10.7

$$$$
>  <molecule>
CC[N+](CC)(CC)CC.[C-]#[O+].[C-]#[O+].[C-]#[O+].[Cr+4].[c-]1[c-][c-][cH-][c-]1

>  <measured>
6.65

$$$$
>  <molecule>
CCCCCCCC(=O)[O-].N.N.N.N.N.[Co+3].[O-][Cl+3]([O-])([O-])[O-]

>  <measured>
-10.7

$$$$
